Test system: PPARg:RXRa IVT, anti-PPARg (NR concentration 270 nM, RXRa partner concentration 90 nM)
Test: PBM binding z-score (relative to random genomic background probes); higher = stronger binding; sequences stand for … in GC…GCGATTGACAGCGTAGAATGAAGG
Group membership follows PBM binding z-score per the scheme small value = under 1, mid value = from 1 up to 3, large value = 3 and over

Examples from the recorded data:
1) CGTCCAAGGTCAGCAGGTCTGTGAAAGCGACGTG    mid value
2) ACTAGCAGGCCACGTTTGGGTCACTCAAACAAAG    mid value
3) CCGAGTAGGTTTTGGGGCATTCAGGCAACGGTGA    small value
4) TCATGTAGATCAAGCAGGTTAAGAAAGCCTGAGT    small value
5) CCTTACGGGTCACGAGATTATAGCACGACGAGCG    large value
6) TTACCAAGGTGAAGGTCGTTTATCCCTCTGTAGA    large value
7) ATCTCTAGGAAAGACTCAGTTCAGTGAAGAACGC    small value
8) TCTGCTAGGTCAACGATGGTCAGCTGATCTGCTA    large value

Bin this entry: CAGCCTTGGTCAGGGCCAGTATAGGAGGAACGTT
small value

Bin this entry: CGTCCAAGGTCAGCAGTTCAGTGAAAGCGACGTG
mid value

Bin this entry: GCTGCTAGGTCAACTGATGGTCAGCTCAAGCTCG
large value

Bin this entry: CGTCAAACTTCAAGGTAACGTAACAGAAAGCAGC
small value

Bin this entry: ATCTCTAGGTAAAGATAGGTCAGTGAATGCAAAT
mid value

Bin this entry: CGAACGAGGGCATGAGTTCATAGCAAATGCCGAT
mid value

Source: the supplement of paper PMC6555819
